# assayProtocol: xn = mol fraction of the nth substance listed
# recordedConditions: 318.15 K; 100 kPa; Liquid; Concentric cylinders viscometry; x1 = 0.5
observedProperty: viscosity (mPa·s)
Answer with a number only, understood to be in mPa·s.

Take a look at these entries with their results.
> print(dat)
                                   molecule  observedproperty  unitsymbol  resultnumber
1  CN1CCC[C@H]1c1cccnc1 [(-)-3-(N-methylpyrrolidino)pyridine] + CCCCO         viscosity       mPa·s          2.07
2  CN1CCC[C@H]1c1cccnc1 [(-)-3-(N-methylpyrrolidino)pyridine] + OCCCO         viscosity       mPa·s         10.14

Q) Which measured viscosity value corresponds to CN1CCC[C@H]1c1cccnc1 [(-)-3-(N-methylpyrrolidino)pyridine] + CCC(C)O ?
A) 2.099

Q) Which measured viscosity value corresponds to CN1CCC[C@H]1c1cccnc1 [(-)-3-(N-methylpyrrolidino)pyridine] + CC(O)CO ?
A) 7.62
